TEST SYSTEM: α-synuclein (α-syn) aggregates in PD brain homogenates (Homo sapiens, UniProt P37840)
Construct: Anterior cingulate cortex tissue from a Parkinson’s disease (PD) case; tissue Banner Sun Health Research Institute (Dr. Thomas Beach); host or cells: post-mortem human PD anterior cingulate cortex homogenate
PROCEDURE DETAILS: Two point screening assay (30 nM and 300 nM) vs [3H]asyn-44 in human PD brain homogenates
Assay type: binding
ASSAY SETUP: 300 nM competitor
QUANTITY NAME: % [3H]asyn-44 remaining at 300 nM (%)

I = FC1CCN(c2cnc(-n3cc4sc(-c5cncs5)cc4n3)cn2)C1 (stereo not drawn)
II = Cn1ccc(-c2cc3nn(-c4nccc(N5CCC(F)CC5)n4)cc3s2)n1
III = FC1CCN(c2ccc(-c3ccc4scc(Br)c4n3)cn2)C1 (stereo not drawn)
[Q] Sort the items above by % [3H]asyn-44 remaining at 300 nM, starting with the smallest value. Form entry: ranked labels (order as requested).
[A] I, II, III
(I: 12%, II: 19%, III: 28%)

I = COc1cncc(-c2cc3nc(-c4cnc(N5CCC(F)C5)cn4)ccc3s2)c1 (stereo not drawn)
II = FC1CCN(c2ccc(-c3ccc4scc(-c5cccnc5)c4n3)cn2)C1 (stereo not drawn)
III = Cn1ccc(-c2cc3nn(-c4cnc(N5CCC(F)CC5)cn4)cc3s2)n1
[Q] # rank by % [3H]asyn-44 remaining at 300 nM, ascending (min first) Form entry: ranked labels (order as requested).
[A] II, I, III

---

TEST SYSTEM: α-synuclein (α-syn) aggregates in PD brain homogenates (Homo sapiens)
Construct: Anterior cingulate cortex tissue from a Parkinson’s disease (PD) case; tissue Banner Sun Health Research Institute (Dr. Thomas Beach); host or cells: post-mortem human PD anterior cingulate cortex homogenate
PROCEDURE DETAILS: Two point screening assay (30 nM and 300 nM) vs [3H]asyn-44 in human PD brain homogenates
Type: binding
ASSAY SETUP: 300 nM competitor
QUANTITY NAME: % [3H]asyn-44 remaining at 300 nM (%)

MOLECULE | OUTPUT UNIT | EXPERIMENTAL RESULT
F[C@@H]1CCN(c2cnc(-n3cc4sc(-c5cccnc5)cc4n3)cn2)C1 | % | 33
FC1CCN(c2cc(-n3cc4sc(-c5cccnc5)cc4n3)ncn2)CC1 | % | 34
FC1CCN(c2ccnc(-n3ncc4sc(-c5cccnc5)cc43)n2)C1 (stereo not drawn) | % | 22
FC1CCN(c2cc(Cl)ncc2-c2ccc3sc(-c4cccnc4)cc3n2)C1 (stereo not drawn) | % | 35
Cn1ccc(-c2cc3nc(-c4cnc(N5CCC(F)CC5)cn4)ccc3s2)n1 | % | 29

A = FC1CCN(c2ccc(-n3cc4sc(-c5cncs5)cc4n3)cn2)C1 (stereo not drawn)
B = FC1CCN(c2ccc(-c3csc4ccc(-c5cccnc5)nc34)cn2)C1 (stereo not drawn)
C = Cn1ccc(-c2cc3nn(-c4cnc(N5CCC(F)C5)cn4)cc3s2)n1 (stereo not drawn)
[Q] Could you please sort these 3 entries by % [3H]asyn-44 remaining at 300 nM from high to low? Form entry: ranked labels (order as requested).
[A] A, B, C

---

PROCEDURE DETAILS: Metabolic stability in human liver microsomes
Type: in vitro ADME
ASSAY SETUP: pooled human liver microsomes, pH 7.4; human liver microsomes, 1 μM, 30 min
QUANTITY NAME: remaining at 0.5 h, 1 μM (%)

Would you please look over these solved cases?
COMPOUND SMILES | QUANTITY NAME | EXPERIMENTAL RESULT
F[C@@H]1CCN(c2ccc(-c3ccc4sc(-c5cncs5)cc4n3)cn2)C1 | remaining at 0.5 h, 1 μM | 4.32
F[C@@H]1CCN(c2cnc(-c3csc4ccc(-c5cccnc5)nc34)cn2)C1 | remaining at 0.5 h, 1 μM | 3.71
F[C@@H]1CCN(c2cc(-n3cc4sc(-c5cccnc5)cc4n3)ncn2)C1 | remaining at 0.5 h, 1 μM | 5.61

1 = F[C@@H]1CCN(c2ccc(-n3cc4sc(-c5cccnc5)cc4n3)cn2)C1
2 = F[C@@H]1CCN(c2cnc(-c3ccc4scc(-c5cccnc5)c4n3)cn2)C1
3 = O=C1NCc2nc(-c3cnc(N4CC[C@@H](F)C4)cn3)ccc21
4 = FC1CCN(c2cnc(-n3cc4sc(-c5cccnc5)cc4n3)cn2)CC1
[Q] Could you please sort these 4 entries by remaining at 0.5 h, 1 μM from high to low? Form entry: ranked labels (order as requested).
[A] 3, 4, 2, 1
